Exercise: state measured melting point for each of the compounds provided.

Consider the worked cases shown below.
C[C@@H](n1ncc2cc(-c3ccc([N+](=O)[O-])cc3)cn2c1=O)[C@](O)(Cn1cncn1)c1ccc(F)cc1F
130 to 131 °C
C[C@@H](n1ccc2nc(-c3nccs3)cn2c1=O)[C@](O)(Cn1cncn1)c1ccc(F)cc1F
175 to 176 °C
Cc1cn2c(=O)n([C@H](C)[C@](O)(Cn3cncn3)c3ccc(F)cc3F)ccc2n1
103 to 104 °C

With those in mind, consider the next compound.
// lookup melting point for `C[C@@H](n1ncc2cccn2c1=O)[C@](O)(Cn1cncn1)c1ccc(F)cc1F` 131 to 132 °C

###

# System: A. fumigatus itraconazole-resistant strain ASFU13
# assay: Antifungal susceptibility, spectrofluorimetric microdilution, ASFU13
# Type: cell-based, Aspergillus fumigatus
# experimental-conditions: Aspergillus fumigatus, read-out: MIC values ASFU13
# Method: Eleven strains of A. fumigatus with various itraconazole susceptibility were used: • Five susceptible strains: ASFU7, ASFU35A, ASFU38A, ASFU76 and ASFU78. • Six itraconazole-resistant strains: ASFU77 (erg11 mutation), ASFU13, ASFU17, ASFU19, ASFU20, ASFU23. Antifungal susceptibility was evaluated with a spectrofluorimetric microdilution method. MIC was the concentration that was able to inhibit 80% of fluorescence measured in the control wells.
Exercise: state measured MIC for each of the compounds provided.
One number for each entry, in µg/mL.

Consider the worked cases shown below.
C[C@@H](n1ncc2cc(-c3ccc(Cl)cc3)cn2c1=O)[C@](O)(Cn1cncn1)c1ccc(F)cc1F
2.53
C[C@@H](c1ncncc1F)[C@](O)(Cn1cncn1)c1ccc(F)cc1F [VOR, voriconazole, reference compound]
0.136
COc1ccc(-c2cc3cnn([C@H](C)[C@](O)(Cn4cncn4)c4ccc(F)cc4F)c(=O)n3c2)cc1
2.03
C[C@@H](n1ncc2cccn2c1=O)[C@](O)(Cn1cncn1)c1ccc(F)cc1F
4.06

With those in mind, consider the next compound.
// lookup MIC for `C[C@@H](n1ncc2cc(-c3ccc([N+](=O)[O-])cc3)cn2c1=O)[C@](O)(Cn1cncn1)c1ccc(F)cc1F` 3.08

###

readout-type: melting point

C[C@@H](n1ccc2nc(-c3ccc(Cl)cc3)cn2c1=O)[C@](O)(Cn1cncn1)c1ccc(F)cc1F [Compound 31]
158 to 159 °C

Please supply melting point for each of the following items, keeping them in order.
1. C[C@@H](n1ncc2cc(Br)cn2c1=O)[C@](O)(Cn1cncn1)c1ccc(F)cc1F [Compound 45]
2. C[C@@H](n1ncc2cc(-c3ccc(C#N)cc3)cn2c1=O)[C@](O)(Cn1cncn1)c1ccc(F)cc1F [Compound 49]

1. 142 to 143 °C
2. 201 to 202 °C

Please supply melting point for each of the following items, keeping them in order.
1. C[C@@H](n1ccc2nc(C#N)cn2c1=O)[C@](O)(Cn1cncn1)c1ccc(F)cc1F [Compound 38]
2. C[C@@H](n1ccc2nc(-c3ccc(Br)cc3)cn2c1=O)[C@](O)(Cn1cncn1)c1ccc(F)cc1F [Compound 32]
3. C[C@@H](n1ccc2nc(-c3ccc(F)cc3)cn2c1=O)[C@](O)(Cn1cncn1)c1ccc(F)cc1F [Compound 30]
4. C[C@@H](n1ncc2cc(-c3ccccc3)cn2c1=O)[C@](O)(Cn1cncn1)c1ccc(F)cc1F [Compound 47]

132 to 133 °C
161 to 162 °C
114 to 115 °C
146 to 147 °C

###

Exercise: state measured pIC50 for each of the molecules provided.
# assay: Cytotoxicity on HeLa cells
# Type: cell-based, Human
# experimental-conditions: human, 50% inhibition of control fluorescence
Numbers only, as −log10 of the molar value.

C[C@@H](n1ccc2nc(-c3ccc(C#N)cc3)cn2c1=O)[C@](O)(Cn1cncn1)c1ccc(F)cc1F [Compound 34]
4.60

With those in mind, consider the next molecule.
// lookup pIC50 for C[C@@H](n1ccc2nc(-c3ccccc3)cn2c1=O)[C@](O)(Cn1cncn1)c1ccc(F)cc1F [Compound 29] 4.60

###

Exercise: state measured melting point for each of the molecules provided.

Consider the worked cases shown below.
C[C@@H](n1ccc2nccn2c1=O)[C@](O)(Cn1cncn1)c1ccc(F)cc1F
156 to 157 °C
CCOC(=O)c1cn2c(=O)n([C@H](C)[C@](O)(Cn3cncn3)c3ccc(F)cc3F)ccc2n1
148 to 149 °C
C[C@@H](n1ncc2cc(-c3ccc(Cl)cc3)cn2c1=O)[C@](O)(Cn1cncn1)c1ccc(F)cc1F
204 to 205 °C

With those in mind, consider the next molecule.
// lookup melting point for `C[C@@H](n1ccc2nc(-c3ccc(C(F)(F)F)cc3)cn2c1=O)[C@](O)(Cn1cncn1)c1ccc(F)cc1F` 196 to 197 °C

###

Exercise: state measured MIC for each of the compounds provided.
# Test system: A. fumigatus susceptible strain ASFU7
# assay: Antifungal susceptibility, spectrofluorimetric microdilution, ASFU7
# Type: cell-based, Aspergillus fumigatus
# experimental-conditions: Aspergillus fumigatus, read-out: MIC values ASFU7
# Procedure: Eleven strains of A. fumigatus with various itraconazole susceptibility were used: • Five susceptible strains: ASFU7, ASFU35A, ASFU38A, ASFU76 and ASFU78. • Six itraconazole-resistant strains: ASFU77 (erg11 mutation), ASFU13, ASFU17, ASFU19, ASFU20, ASFU23. Antifungal susceptibility was evaluated with a spectrofluorimetric microdilution method. MIC was the concentration that was able to inhibit 80% of fluorescence measured in the control wells.
One number for each entry, in mg/L.

Consider the worked cases shown below.
C[C@@H](n1ncc2cc(-c3ccccc3)cn2c1=O)[C@](O)(Cn1cncn1)c1ccc(F)cc1F
44.1
C[C@@H](n1ccc2nccn2c1=O)[C@](O)(Cn1cncn1)c1ccc(F)cc1F
7.29
C[C@@H](n1ncc2cc(-c3ccc(Cl)cc3)cn2c1=O)[C@](O)(Cn1cncn1)c1ccc(F)cc1F
6.07

Please supply MIC for each of the following items, keeping them in order.
1. C[C@@H](n1ccc2nc(-c3ccc(C#N)cc3)cn2c1=O)[C@](O)(Cn1cncn1)c1ccc(F)cc1F
2. COc1ccc(-c2cc3cnn([C@H](C)[C@](O)(Cn4cncn4)c4ccc(F)cc4F)c(=O)n3c2)cc1

1. 2.43
2. 2.21

// lookup MIC for `C[C@@H](n1ccc2nc(-c3ccccc3)cn2c1=O)[C@](O)(Cn1cncn1)c1ccc(F)cc1F` 2.49
